All values here come from patent US20250213563A1.

Experiment: Single oral dose exposure in NOD/SCID mice
Assay type: in vivo
Details: male, mouse, plasma, single oral dose 100 mg/kg
outcome.measure: Cmax
Just the number plus its unit, please.

Ask: So what's the measured Cmax for this one? Cc1c(N2CCC3(CC2)CO[C@@H](C)[C@H]3N)nc(C)n(-c2cccc(Cl)c2Cl)c1=O (atropisomer, axis not shown; (Ra)) [Compound (10b)]
Reply: 13900 ng/mL

* * *

Test: Phase 1/1B first-in-human study, safety and PK (Cohorts 1-5)
Format: in vivo
Details: human, plasma, oral, 80 mg, 80 mg QD, C1D1, N=1
From the text: The initial results were from Cohorts 1-5 of the Phase 1/1B First-in-Human Study of Example 6. No safety findings impacting the risk or benefit of compound (10b) reported in the 19 patients dosed. Nine (9) treatment-emergent serious adverse events (SAEs) were reported in 7 patients, none of which were deemed related to the treatment with compound (10b).
outcome.measure: Tmax (h)
Answers are plain numbers, in h.

Ask: So what's the measured Tmax for this one? Cc1c(N2CCC3(CC2)CO[C@@H](C)[C@H]3N)nc(C)n(-c2cccc(Cl)c2Cl)c1=O (atropisomer, axis not shown; (Ra)) [Compound (10b)]
Reply: 2
